- test-protocol: Mouse blood levels after single intramuscular injection
- Format: in vivo, mice
- condition-parameters: in vivo, im, 20 mg/kg
Listing of entries alongside the reported concentration at 50 min.
Answer format: number, then unit.

# annotated cases, reported concentration at 50 min shown
compound | concentration at 50 min
Cc1nc2c[n+](CC3=C(C(=O)[O-])N4C(=O)C(NC(=O)/C(=N\OC5(C(=O)O)CCC5)c5csc(N)n5)[C@H]4SC3)ccc2s1 (stereo partly shown) | 2700 ng/mL
CCO/N=C(\C(=O)NC1C(=O)N2C(C(=O)[O-])=C(C[n+]3ccc4scnc4c3)CSC12)c1csc(N)n1 (stereo not shown) | 3800 ng/mL
CO/N=C(\C(=O)NC1C(=O)N2C(C(=O)[O-])=C(C[n+]3ccc4sc(C)nc4c3)CSC12)c1csc(N)n1 (stereo not shown) | 4100 ng/mL
CO/N=C(\C(=O)NC1C(=O)N2C(C(=O)[O-])=C(C[n+]3ccc4sc(N)nc4c3)CSC12)c1csc(N)n1 (stereo not shown) | 4400 ng/mL
CC(C)(O/N=C(\C(=O)NC1C(=O)N2C(C(=O)[O-])=C(C[n+]3ccc4scnc4c3)CS[C@H]12)c1csc(N)n1)C(=O)O (stereo partly shown) | 3900 ng/mL

In: Please supply the value of reported concentration at 50 min for the item Nc1nc(/C(=N/OC2(C(=O)O)CCC2)C(=O)NC2C(=O)N3C(C(=O)[O-])=C(C[n+]4ccc5scnc5c4)CS[C@H]23)cs1 (stereo partly shown)
Out: 3000 ng/mL

In: Please supply the value of reported concentration at 50 min for the item CO/N=C(\C(=O)NC1C(=O)N2C(C(=O)[O-])=C(C[n+]3ccc4sc(C(=O)O)nc4c3)CS[C@H]12)c1csc(N)n1 (stereo partly shown)
Out: 4300 ng/mL

###

- test-protocol: Mouse blood levels after single intramuscular injection
- Assay type: in vivo, mice
- condition-parameters: in vivo, im, 20 mg/kg
Rule: concentration at 40 min below 7000 ng/mL gives yes, anything at or above gives no.

Recorded results for 8 compounds are shown here.
compound | category
CO/N=C(\C(=O)NC1C(=O)N2C(C(=O)[O-])=C(C[n+]3ccc4sc(C=O)nc4c3)CSC12)c1csc(N)n1 (stereo not shown) | yes
C=CCO/N=C(\C(=O)NC1C(=O)N2C(C(=O)[O-])=C(C[n+]3ccc4scnc4c3)CSC12)c1csc(N)n1 (stereo not shown) | no
CCO/N=C(\C(=O)NC1C(=O)N2C(C(=O)[O-])=C(C[n+]3ccc4scnc4c3)CSC12)c1csc(N)n1 (stereo not shown) | yes
CO/N=C(\C(=O)NC1C(=O)N2C(C(=O)[O-])=C(C[n+]3ccc4scnc4c3)CS[C@H]12)c1csc(N)n1 (stereo partly shown) | no
CO/N=C(\C(=O)NC1C(=O)N2C(C(=O)[O-])=C(C[n+]3ccc4sc(NC(=O)N5CCCC5)nc4c3)CS[C@H]12)c1csc(N)n1 (stereo partly shown) | no
CO/N=C(\C(=O)NC1C(=O)N2C(C(=O)[O-])=C(C[n+]3ccc4sc(NC(=O)CN)nc4c3)CS[C@H]12)c1csc(N)n1 (stereo partly shown) | no
Nc1nc(/C(=N/OC2(C(=O)O)CCC2)C(=O)NC2C(=O)N3C(C(=O)[O-])=C(C[n+]4ccc5sc(N)nc5c4)CS[C@H]23)cs1 (stereo partly shown) | no
CO/N=C(\C(=O)NC1C(=O)N2C(C(=O)[O-])=C(C[n+]3ccc4sc(C(N)=O)nc4c3)CS[C@H]12)c1csc(N)n1 (stereo partly shown) | no

In: Report whether reported concentration at 40 min is lower than 7000 ng/mL (strictly) for Nc1nc(/C(=N/OCC(=O)O)C(=O)NC2C(=O)N3C(C(=O)[O-])=C(C[n+]4ccc5sc(N)nc5c4)CS[C@H]23)cs1 (stereo partly shown)
Out: no

In: Report whether reported concentration at 40 min is lower than 7000 ng/mL (strictly) for CO/N=C(\C(=O)NC1C(=O)N2C(C(=O)[O-])=C(C[n+]3ccc4sc(NC(C)=O)nc4c3)CS[C@H]12)c1csc(N)n1 (stereo partly shown)
Out: no

In: Report whether reported concentration at 40 min is lower than 7000 ng/mL (strictly) for CO/N=C(\C(=O)NC1C(=O)N2C(C(=O)[O-])=C(C[n+]3ccc4sc(C(=O)O)nc4c3)CS[C@H]12)c1csc(N)n1 (stereo partly shown)
Out: yes
